Test: Cytotoxicity to primary chicken kidney culture cells
Format: cell-based
Conditions: primary chicken kidney cells
Observation type: MCC

Compound	Observation type	Measurement
CCCCCc1cccc(O)c1C1=NC(C2SCC(C(O)C(C)(C)C3=NC(C)(C(=O)NCCO)CS3)N2C)CS1 (stereo not drawn)	MCC	> 10 µg/mL
CCCCCc1cccc(OCc2ccc(Cl)cc2)c1C1=NC(C2SCC(C(O)C(C)(C)C3=NC(C)(C(=O)OC)CS3)N2C)CS1 (stereo not drawn)	MCC	> 10 µg/mL
CCCCCc1cccc(OCc2ccc(Cl)cc2)c1C1=NC(C2SCC(C(OCc3ccc(Cl)cc3)C(C)(C)C3=NC(C)(C(=O)OCc4ccc(Cl)cc4)CS3)N2C)CS1 (stereo not drawn)	MCC	> 10 µg/mL

stdin: MCC lookup needed for CCCCCc1cccc(O)c1C1=NC(C2SCC(C(O)C(C)(C)C3=NC(C)(C(=O)OCc4ccc(Cl)cc4)CS3)N2C)CS1 (stereo not drawn) , thanks.
stdout: > 10 µg/mL

stdin: MCC lookup needed for CCCCCc1cccc(OC)c1C1=NC(C2SCC(C(O)C(C)(C)C3=NC(C)(C(=O)O)CS3)N2C)CS1 (stereo not drawn) , thanks.
stdout: 10 µg/mL

stdin: MCC lookup needed for CCCCCc1cccc(O)c1C1=NC(C2SCC(C(OCc3ccc(Cl)cc3)C(C)(C)C3=NC(C)(C(=O)OC)CS3)N2C)CS1 (stereo not drawn) , thanks.
stdout: > 10 µg/mL
